Molecular target: α7-GlyR (Homo sapiens)
Construct: expressed in transfected cells; host or cells: HEK cells
Test: Agonist potency (EC50), HEK cells expressing chimeric channel
Type: cell-based
Conditions: read-out: Agonist potency, a7GlyR
Measured attribute: EC50 (µM)
Number in µM, nothing else.

                                   molecule  measured_attribute  measured_result
0  O=C(NC1CN2CCC1CC2)c1ccc(Cl)cc1 (centres unmarked)                EC50             0.13

Now for another entry.
# input molecule: O=c1cccc2n1C[C@@H]1CNC[C@H]2C1 ; wanted: its EC50
6.4

* * *

Molecular target: α7-5HT3 (Homo sapiens, UniProt P36544, M226I/T225I)
Construct: expressed in transfected cells; host or cells: HEK cells
Sequence (P36544 with tags, fused parts or gaps T225I/M226I): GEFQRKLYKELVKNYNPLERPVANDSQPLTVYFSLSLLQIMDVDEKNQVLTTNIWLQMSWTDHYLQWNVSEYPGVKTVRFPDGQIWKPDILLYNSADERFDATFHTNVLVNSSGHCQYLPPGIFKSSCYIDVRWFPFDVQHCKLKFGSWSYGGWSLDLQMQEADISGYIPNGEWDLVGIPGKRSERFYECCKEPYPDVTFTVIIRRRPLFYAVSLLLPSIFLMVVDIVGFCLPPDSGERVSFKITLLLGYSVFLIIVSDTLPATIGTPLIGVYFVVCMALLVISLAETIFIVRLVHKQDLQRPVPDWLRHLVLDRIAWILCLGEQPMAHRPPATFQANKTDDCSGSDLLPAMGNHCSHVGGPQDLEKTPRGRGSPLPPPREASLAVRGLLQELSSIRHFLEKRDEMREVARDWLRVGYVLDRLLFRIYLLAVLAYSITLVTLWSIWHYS
Assay: Agonist potency (EC50), HEK cells expressing chimeric channel
Type: cell-based, human α7 nAChR LBD, murine 5HT3 IPD
Conditions: read-out: α7-5HT3 EC50
Measured attribute: EC50 (nM)
Numbers only here, please. The scale is nM.

Query (molecule): O=C(NC1CN2CCC1CC2)c1ccc(Cl)cc1 (stereo not shown) ; field requested: EC50
220

* * *

Target: α7GlyR Q79G G175K Y115F R27D E41R (Homo sapiens, UniProt P36544, E41R/G175K/Q79G/R27D/Y115F)
Construct: expressed in transfected cells
Sequence (P36544 with tags, fused parts or gaps R27D/E41R/Q79G/Y115F/G175K): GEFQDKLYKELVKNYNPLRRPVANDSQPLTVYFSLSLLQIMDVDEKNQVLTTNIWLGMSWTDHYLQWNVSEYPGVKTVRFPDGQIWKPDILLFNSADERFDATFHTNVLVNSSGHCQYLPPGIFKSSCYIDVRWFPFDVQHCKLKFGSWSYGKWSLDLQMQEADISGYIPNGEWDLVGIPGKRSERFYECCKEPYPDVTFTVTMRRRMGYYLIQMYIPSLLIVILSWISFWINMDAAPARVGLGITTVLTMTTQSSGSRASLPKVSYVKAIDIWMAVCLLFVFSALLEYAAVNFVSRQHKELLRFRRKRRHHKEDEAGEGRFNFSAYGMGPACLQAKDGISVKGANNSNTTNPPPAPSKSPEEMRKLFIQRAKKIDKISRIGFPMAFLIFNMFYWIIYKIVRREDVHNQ
Assay: Agonist potency at chimeric channel
Assay type: cell-based
Measured attribute: EC50 (nM)
The reply should be a number in nM, with the unit left off.

In [3]: df
Out[3]:
                                   compound  measured_result
0  Clc1ccc(C2CC3CCC2N3)cn1 (centres unmarked) [Epibatidine]               59

Now examine the next entry.
Fill in the blank: the reported EC50 of O=C(NC1CN2CCC1CC2)c1ccc(Cl)cc1 (centres unmarked) is ____.
50

* * *

Molecular target: α7-GlyR (Homo sapiens, UniProt P36544)
Construct: expressed in transfected cells; host or cells: HEK cells
Sequence (P36544 with tags, fused parts or gaps): as the sequence (P36544 with tags, fused parts or gaps R27D/E41R/Q79G/Y115F/G175K) above, with D5R, R19E, G57Q, F93Y, K153G counted along it
Test: Agonist potency (EC50), HEK cells expressing chimeric channel
Type: cell-based
Settings: read-out: α7-GlyR EC50
Measured attribute: EC50 (nM)
Form entry: value (nM) — number only.

Quick one: EC50 of O=C(NC1CN2CCC1CC2)c1ccc(Cl)cc1 (stereo not shown) ?
130

* * *

Target: α7^Q79G,G175K-GlyR (Homo sapiens, UniProt P36544, G175K/Q79G)
Construct: expressed in transfected cells
Assay: Agonist potency at chimeric channel
Assay type: cell-based
Details: Table 6; read-out: Potency, a7GlyR Q79G G175K
// reported pEC50 per item
# pEC50: negative log10 of molar concentration; output just the value

In [3]: df
Out[3]:
                              sample_smiles  measured_result
0  COc1ccc2[nH]cc(C(=O)O[C@H]3C[C@H]4CC[C@@H](C3)N4C)c2c1             7.36

What measured pEC50 goes with FC(F)(F)Oc1ccc(NC(=S)N[C@@H]2CN3CCC2CC3)cc1 ?
6.27

Fill blank: measured pEC50 of the molecule FC(F)(F)Oc1ccc(NC(=S)N[C@H]2CN3CCC2CC3)cc1 is ____.
7.11

* * *

Biological target: α7^Q79G,Y115F-GlyR^A298G (Homo sapiens, UniProt P36544, A298G/Q79G/Y115F)
Assay: Agonist potency (EC50), HEK cells expressing chimeric channel
Settings: Table 4
Measured attribute: EC50 (nM)
State just the number; it will be interpreted in nM.

Request the reported EC50 associated with O=C(NC1CN2CCC1CC2)c1ccc(Cl)cc1 (stereo not shown)
220
